Taken from patent US6919086B1.

// reported inhibition value (inhibitor concentration at 25% inhibition) per item
Target: IgE antibodies of the individual allergic patient serum II/17
Experiment: EAST inhibition, individual serum II/17
Give the quantity in mol/L, number only.

Example results:
* rPhl p 5b deletion mutant DM3 (deletion A154-T177, A220T) (protein) ADAGYAPATPAAAGAAAGKATTEEQKLIEDINVGFKAAVAAAASVPAADKFKTFEAAFTSSSKAAAAKAPGLVPKLDAAYSVAYKAAVGATPEAKFDSFVASLTEALRVIAGALEVHAVKPVTEEPGMAKIPAGELQIIDKIDAAFKVAATAAGGAYDTYKCIPSLEAAVKQAYAATVAAAPQVKYAVFEAALTKTITAMSEVQKVSQPATGAATVAAGAATTAAGAASGAATVAAGGYKV | 5.6e-09
* rPhl p 5b point mutant PM3 (A13C) (protein) ADAGYAPATPAACGAAAGKATTEEQKLIEDINVGFKAAVAAAASVPAADKFKTFEAAFTSSSKAAAAKAPGLVPKLDAAYSVAYKAAVGATPEAKFDSFVASLTEALRVIAGALEVHAVKPVTEEPGMAKIPAGELQIIDKIDAAFKVAATAAATAPADDKFTVFEAAFNKAIKESTGGAYDTYKCIPSLEAAVKQAYAATVAAAPQVKYAVFEAALTKAITAMSEVQKVSQPATGAATVAAGAATTAAGAASGAATVAAGGYKV | 2.5e-10

What value of measured inhibition value (inhibitor concentration at 25% inhibition) is listed for natural Phl p 5b, purified by affinity chromatography (protein) ADAGYAPATPAAAGAAAGKATTEEQKLIEDINVGFKAAVAAAASVPAADKFKTFEAAFTSSSKAAAAKAPGLVPKLDAAYSVAYKAAVGATPEAKFDSFVASLTEALRVIAGALEVHAVKPVTEEPGMAKIPAGELQIIDKIDAAFKVAATAAATAPADDKFTVFEAAFNKAIKESTGGAYDTYKCIPSLEAAVKQAYAATVAAAPQVKYAVFEAALTKAITAMSEVQKVSQPATGAATVAAGAATTAAGAASGAATVAAGGYKV ?
2.2e-10
